This collection of values is drawn from patent US20240208992A1.

test_target: human F508del-CFTR (Homo sapiens, UniProt P13569, DEL508-508)
Sequence (P13569 with tags, fused parts or gaps DEL508-508): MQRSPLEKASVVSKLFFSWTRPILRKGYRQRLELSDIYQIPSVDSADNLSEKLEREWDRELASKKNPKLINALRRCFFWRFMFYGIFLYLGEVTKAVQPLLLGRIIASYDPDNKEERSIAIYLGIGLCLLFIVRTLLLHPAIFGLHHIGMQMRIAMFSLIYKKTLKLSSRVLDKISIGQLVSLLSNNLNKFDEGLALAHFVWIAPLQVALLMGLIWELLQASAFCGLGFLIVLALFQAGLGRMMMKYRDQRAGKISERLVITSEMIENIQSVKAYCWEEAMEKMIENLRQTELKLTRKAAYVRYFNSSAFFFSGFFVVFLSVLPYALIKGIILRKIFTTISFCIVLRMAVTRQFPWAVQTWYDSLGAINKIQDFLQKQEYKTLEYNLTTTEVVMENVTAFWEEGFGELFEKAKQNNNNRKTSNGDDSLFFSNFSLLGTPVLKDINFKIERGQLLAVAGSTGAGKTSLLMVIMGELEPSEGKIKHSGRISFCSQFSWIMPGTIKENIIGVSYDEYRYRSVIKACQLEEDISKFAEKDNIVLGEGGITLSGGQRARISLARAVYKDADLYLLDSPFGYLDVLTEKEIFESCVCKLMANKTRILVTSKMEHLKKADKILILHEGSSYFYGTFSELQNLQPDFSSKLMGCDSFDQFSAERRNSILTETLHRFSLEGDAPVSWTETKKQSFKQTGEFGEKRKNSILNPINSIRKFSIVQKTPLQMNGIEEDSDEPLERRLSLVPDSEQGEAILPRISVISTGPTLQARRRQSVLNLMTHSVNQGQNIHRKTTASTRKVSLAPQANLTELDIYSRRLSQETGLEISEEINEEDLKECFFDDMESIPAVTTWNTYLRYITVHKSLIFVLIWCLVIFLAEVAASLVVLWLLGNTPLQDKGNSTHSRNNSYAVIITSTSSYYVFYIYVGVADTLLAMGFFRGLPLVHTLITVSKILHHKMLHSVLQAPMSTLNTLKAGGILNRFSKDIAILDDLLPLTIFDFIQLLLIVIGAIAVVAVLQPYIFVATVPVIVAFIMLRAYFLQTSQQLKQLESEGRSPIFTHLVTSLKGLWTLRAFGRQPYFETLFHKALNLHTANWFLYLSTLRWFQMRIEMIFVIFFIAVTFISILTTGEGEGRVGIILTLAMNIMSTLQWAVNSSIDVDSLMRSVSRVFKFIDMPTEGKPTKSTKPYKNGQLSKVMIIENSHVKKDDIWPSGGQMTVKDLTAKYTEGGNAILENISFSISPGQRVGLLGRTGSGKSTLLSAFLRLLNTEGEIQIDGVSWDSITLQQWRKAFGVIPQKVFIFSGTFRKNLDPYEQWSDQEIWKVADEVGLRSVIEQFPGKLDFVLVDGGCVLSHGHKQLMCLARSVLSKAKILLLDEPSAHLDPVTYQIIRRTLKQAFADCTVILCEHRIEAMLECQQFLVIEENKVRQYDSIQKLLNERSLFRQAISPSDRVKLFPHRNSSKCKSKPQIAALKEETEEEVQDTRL
experiment_notes: F508del-CFTR cell surface expression (corrector activity), DiscoveRx ß-galactosidase complementation chemiluminescence assay in recombinant U2OS cell line;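 further: U2OS cells co-expressing ProLink-tagged F508del-CFTR and a membrane-anchored enzyme acceptor, where more surface CFTR restores β-galactosidase activity measured by chemiluminescence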
condition_summary: EC50, F508del-CFTR cell surface expression, U2OS cells, 16h compound incubation; geomean values
measured_metric: pEC50
To interpret pEC50, take it as minus log10 of a concentration measured in moles per litre.

pEC50 reported for this compound CC(C)C[C@H]1C(=O)N(C)[C@@H](CC2CCC(F)(F)CC2)C(=O)N[C@H](Cc2ccccc2)COc2cnc3ccc(F)cc3c2C(=O)N[C@H](C(=O)NCCc2noc(C3CC3)n2)CC(=O)N1C [Example 540] : 6.57

The compound identified as COc1cc(CCNC(=O)[C@@H]2CC(=O)N(C)[C@@H](CC(C)C)C(=O)N(C)[C@H](C)C(=O)N[C@H](Cc3ccccc3)COc3ccc4ncc(F)cc4c3C(=O)N2)on1 registered its pEC50 at 6.81

Consider COc1cccc(CCNC(=O)[C@@H]2CC(=O)N(C)[C@@H](CC(C)C)C(=O)N3CCOC[C@@H]3C(=O)N[C@H](Cc3ccccc3)COc3cc4oc(C)nc4cc3C(=O)N2)c1 . Its measured pEC50 is 6.16
